Listed next: entries and their corresponding normalized growth.
- assay: chemical genetic growth profiling, strain panel (AID 1159580);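 further: tested at 20 µM; growth read once vehicle control cultures reached saturation at 30 °C; 1 = growth at the plate median or of vehicle wells; lower values mean less growth of the strain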
- condition notes: S. cerevisiae deletion strains, growth OD, locus YER015W, strain faa2, active compounds read low
The campaign covered roughly 5,500 compounds. About 2,000 (36%) were called active. Another 18% or so got no clear call; they are omitted. This is one part of the list.

| compound | normalized growth |
| --- | --- |
| N=c1ccn2c(n1)O[C@@H]1C2O[C@H](CO)[C@H]1O (stereo not given in full) | 0.985 |
| COc1cc(O)c(C(=O)/C=C/c2ccccc2)c(OC)c1 | 0.89 |
| COc1ccc2c3c1O[C@H]1C[C@@H](O)C=C[C@@]31CCN(C)C2 | 0.993 |
| CNC(C)[C@H](O)c1ccccc1 (stereo not given in full) | 1.01 |
| CN[C@@H](C)[C@@H](O)c1ccccc1 | 1 |
| CC1=C(C(C)O)C2=NC1C=c1[nH]c(c(C)c1C(C)O)=Cc1[nH]c(c(CCC(=O)O)c1C)C=c1[nH]c(c(C)c1CCC(=O)O)=C2 (stereo not given) | 1.01 |
| CC(CCc1ccccc1)NC(C)C(O)c1ccc(O)cc1 (stereo not given) | 0.998 |
| COc1cc(O)c(C(=O)/C=C/c2ccc(O)c(OC)c2)c(OC)c1 | 0.973 |
| CC(NCCc1ccc(O)cc1)C(O)c1ccc(O)cc1 (stereo not given) | 0.995 |
| C=Cc1c2[nH]c(c1C)C=c1[nH]c(c(C)c1C=C)=CC1N=C(C=c3[nH]c(c(C)c3CCC(=O)O)=C2)C(CCC(=O)O)=C1C (stereo not given) | 1.04 |

Just for reference, PubChem BioAssay AID1159580 is where these values come from.
